target: rNav1.2 sodium channels (HEK-293 cells) (Rattus norvegicus, UniProt P04775); test: 5 Hz train protocol, QPatch automated patch-clamp; assay type: cell-based; conditions: HEK293; calculated from Inh at single concentration 300 μM; −90 mV, 5 Hz train; read-out: IC50
Sequence (P04775 whole entry): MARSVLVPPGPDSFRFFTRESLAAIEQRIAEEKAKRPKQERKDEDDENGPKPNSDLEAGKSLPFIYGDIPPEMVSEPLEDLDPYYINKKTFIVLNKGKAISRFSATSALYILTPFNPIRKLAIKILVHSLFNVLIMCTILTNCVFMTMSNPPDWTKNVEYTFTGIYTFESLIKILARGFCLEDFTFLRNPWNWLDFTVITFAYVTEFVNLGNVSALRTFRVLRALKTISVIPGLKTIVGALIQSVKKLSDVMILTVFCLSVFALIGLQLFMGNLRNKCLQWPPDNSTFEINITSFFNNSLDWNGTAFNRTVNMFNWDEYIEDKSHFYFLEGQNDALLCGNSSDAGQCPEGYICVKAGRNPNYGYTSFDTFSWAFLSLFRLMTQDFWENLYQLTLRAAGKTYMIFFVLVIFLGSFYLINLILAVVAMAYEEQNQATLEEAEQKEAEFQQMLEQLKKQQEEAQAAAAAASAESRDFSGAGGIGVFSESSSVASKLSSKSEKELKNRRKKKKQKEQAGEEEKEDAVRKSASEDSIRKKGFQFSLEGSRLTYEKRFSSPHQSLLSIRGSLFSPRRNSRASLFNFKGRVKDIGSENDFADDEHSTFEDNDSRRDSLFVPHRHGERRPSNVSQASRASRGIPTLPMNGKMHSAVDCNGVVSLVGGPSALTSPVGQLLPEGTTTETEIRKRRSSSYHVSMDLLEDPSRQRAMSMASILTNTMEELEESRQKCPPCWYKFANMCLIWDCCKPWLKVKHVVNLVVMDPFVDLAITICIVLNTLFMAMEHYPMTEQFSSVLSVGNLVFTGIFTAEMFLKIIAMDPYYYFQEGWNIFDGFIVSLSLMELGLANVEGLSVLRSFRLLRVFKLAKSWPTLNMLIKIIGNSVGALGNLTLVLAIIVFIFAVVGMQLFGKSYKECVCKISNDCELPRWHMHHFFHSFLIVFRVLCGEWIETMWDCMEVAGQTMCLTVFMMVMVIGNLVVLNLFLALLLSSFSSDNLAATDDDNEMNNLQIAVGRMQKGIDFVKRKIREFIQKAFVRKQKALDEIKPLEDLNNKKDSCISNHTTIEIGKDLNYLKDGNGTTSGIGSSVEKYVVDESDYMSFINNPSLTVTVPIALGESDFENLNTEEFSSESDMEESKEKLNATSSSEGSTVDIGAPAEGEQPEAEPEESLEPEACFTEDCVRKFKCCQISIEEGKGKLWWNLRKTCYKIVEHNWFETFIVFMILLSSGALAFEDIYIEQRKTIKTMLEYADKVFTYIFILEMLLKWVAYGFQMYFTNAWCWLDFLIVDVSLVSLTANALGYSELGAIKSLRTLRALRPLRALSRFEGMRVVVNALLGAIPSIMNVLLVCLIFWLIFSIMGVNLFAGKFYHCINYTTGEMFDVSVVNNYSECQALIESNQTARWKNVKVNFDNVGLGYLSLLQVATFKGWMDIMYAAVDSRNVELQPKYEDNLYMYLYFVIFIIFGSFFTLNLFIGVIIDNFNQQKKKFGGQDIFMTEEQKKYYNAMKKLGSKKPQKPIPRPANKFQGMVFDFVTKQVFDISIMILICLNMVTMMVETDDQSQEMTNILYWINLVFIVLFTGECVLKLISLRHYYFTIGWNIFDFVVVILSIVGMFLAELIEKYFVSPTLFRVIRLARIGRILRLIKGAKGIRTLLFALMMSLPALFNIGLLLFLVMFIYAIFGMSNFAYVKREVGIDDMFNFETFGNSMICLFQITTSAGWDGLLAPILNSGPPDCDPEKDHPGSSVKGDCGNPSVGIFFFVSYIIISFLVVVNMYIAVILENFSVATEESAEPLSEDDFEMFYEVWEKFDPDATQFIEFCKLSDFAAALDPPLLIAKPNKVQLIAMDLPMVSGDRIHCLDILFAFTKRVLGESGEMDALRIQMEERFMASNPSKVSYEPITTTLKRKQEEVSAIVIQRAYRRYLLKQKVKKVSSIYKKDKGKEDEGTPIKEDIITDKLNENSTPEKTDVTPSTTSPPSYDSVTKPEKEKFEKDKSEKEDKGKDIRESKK
Decide using potency estimated from few doses: a value greater than or equal to 3000 µM is t, a smaller one is f.

Exercise: Can NC(=O)N1c2ccccc2C=Cc2ccccc21 [CBZ, Carbamazepine] be said to have potency estimated from few doses at or above 3000 µM?
Solution: f

Exercise: Quick one: CCN(CC)CCNC(=O)c1cc(S(C)(=O)=O)ccc1OC [TIA, Tiapride]
Solution: t

Exercise: Here is the next molecule: CC1(C)O[C@@H]2[C@@H](CO[C@@]3(COS(N)(=O)=O)OC(C)(C)O[C@@H]23)O1 [TOP, Topiramate]
Solution: t

Exercise: What do you have for CCN(CC)CCNC(=O)c1ccc(N)cc1 [PRC, Procainamide] ?
Solution: f

Exercise: Now this one: O=C1NC(=O)C(c2ccccc2)(c2ccccc2)N1 [DPH, 5,5-diphenyl-hydantoin]
Solution: f

Exercise: Param item: O=C(NCC1CCCCN1)c1cc(OCC(F)(F)F)ccc1OCC(F)(F)F (centres unmarked) [FLC, Flecainide]
Solution: f

Exercise: Also, Cc1cccc(C)c1OCC(C)N (centres unmarked) [MEX, Mexiletine] please.
Solution: f
